Cited source: the supplement of paper PMC9112550

Here the recorded shrunken log2 fold change is given for each entry.
system: Escherichia coli TOP10; assay: shrunken log2 fold change of peptide-encoding DNA abundance (4.5 h post-induction vs induction); higher = less antimicrobial activity (less host growth inhibition); conditions: time post-induction: 4.5 h; library: site-saturation at positions 5, 18, 19, 20
Field format: numeric only.

get_value(item= RRIRERPPRLPRPRPRPEHTPRP , readout=shrunken log2 fold change) returns -0.154

The measured shrunken log2 fold change associated with RRIRFRPPRLPRPRPRPKDMPRP reads -0.0249

Note to self: shrunken log2 fold change recorded for RRIRVRPPRLPRPRPRPFSIPRP was -0.349

RRIRCRPPRLPRPRPRPTYDPRP yielded shrunken log2 fold change of -0.609

Field shrunken log2 fold change (entry RRIRFRPPRLPRPRPRPSRRPRP ) reads -0.0576

---

# shrunken log2 fold change annotations
system: Escherichia coli TOP10; assay: shrunken log2 fold change of peptide-encoding DNA abundance (4.5 h post-induction vs induction); higher = less antimicrobial activity (less host growth inhibition); conditions: time post-induction: 4.5 h; library: site-saturation at positions 5, 18, 19, 20

// below: answered sequences
Sequence record: RRIRGRPPRLPRPRPRPKGNPRP
shrunken log2 fold change: 0.598
--
Sequence record: RRIRPRPPRLPRPRPRPVQAPRP
shrunken log2 fold change: -0.013

Kindly consider the entry below.
// RRIRMRPPRLPRPRPRPQHKPRP : shrunken log2 fold change value = -0.0523

---

system: Escherichia coli TOP10; experiment: shrunken log2 fold change of peptide-encoding DNA abundance (4.5 h post-induction vs induction); higher = less antimicrobial activity (less host growth inhibition); settings: time post-induction: 4.5 h; library: site-saturation at positions 5, 18, 19, 20
Reported shrunken log2 fold change is given for each of the following sequences.
Lab note: jot down the number only; don't add units.

Example entries begin here.
Sequence record: RRIRYRPPRLPRPRPRPSPGPRP
shrunken log2 fold change: -0.726

Sequence record: RRIRKRPPRLPRPRPRPPPEPRP
shrunken log2 fold change: 1.32

Sequence record: RRIRHRPPRLPRPRPRPKALPRP
shrunken log2 fold change: 0.0359

Sequence record: RRIRHRPPRLPRPRPRPLDIPRP
shrunken log2 fold change: -0.105

Sequence record: RRIRTRPPRLPRPRPRPYPIPRP
shrunken log2 fold change: 0.00205

In plain terms, RRIRLRPPRLPRPRPRPASQPRP has a documented shrunken log2 fold change of -0.18

// sample RRIRPRPPRLPRPRPRPARTPRP , its shrunken log2 fold change was 0.396

Value of measured shrunken log2 fold change for the entry RRIRGRPPRLPRPRPRPDHNPRP : 0.0326

---

test system: Escherichia coli TOP10; assay: shrunken log2 fold change of peptide-encoding DNA abundance (4.5 h post-induction vs induction); higher = less antimicrobial activity (less host growth inhibition); conditions: time post-induction: 4.5 h; library: site-saturation at positions 5, 18, 19, 20
Parameter: shrunken log2 fold change
Give a plain numeric answer without units written out.

Observe how each entry below is paired with its result.
Sequence record: RRIRIRPPRLPRPRPRPDCWPRP
Parameter: shrunken log2 fold change
Test value: 0.103
--
Sequence record: RRIRWRPPRLPRPRPRPVISPRP
Parameter: shrunken log2 fold change
Test value: -0.0992
--
Sequence record: RRIRPRPPRLPRPRPRPTQHPRP
Parameter: shrunken log2 fold change
Test value: 0.262
--
Sequence record: RRIRARPPRLPRPRPRPQMYPRP
Parameter: shrunken log2 fold change
Test value: -0.3
--
Sequence record: RRIRKRPPRLPRPRPRPRWQPRP
Parameter: shrunken log2 fold change
Test value: 0.189
--
Sequence record: RRIRERPPRLPRPRPRPDALPRP
Parameter: shrunken log2 fold change
Test value: -0.0722
--
Sequence record: RRIRSRPPRLPRPRPRPNKFPRP
Parameter: shrunken log2 fold change
Test value: -0.36
--
Sequence record: RRIRYRPPRLPRPRPRPEMEPRP
Parameter: shrunken log2 fold change
Test value: -0.0352
--
Sequence record: RRIRTRPPRLPRPRPRPISFPRP
Parameter: shrunken log2 fold change
Test value: -0.199
--
Sequence record: RRIRHRPPRLPRPRPRPYIKPRP
Parameter: shrunken log2 fold change
Test value: -0.287

Next up:
shrunken log2 fold change for RRIRCRPPRLPRPRPRPTSKPRP is 0.921

---

tested on: Escherichia coli TOP10; experiment: shrunken log2 fold change of peptide-encoding DNA abundance (4.5 h post-induction vs induction); higher = less antimicrobial activity (less host growth inhibition); conditions: time post-induction: 4.5 h; library: site-saturation at positions 5, 18, 19, 20
Returns Fulfilled if the recorded shrunken log2 fold change is greater than or equal to 0.07, and Not fulfilled otherwise.

Sequence record: RRIRSRPPRLPRPRPRPHFFPRP
Answer label: Not fulfilled

Data request: Would you say RRIRIRPPRLPRPRPRPGDCPRP shows shrunken log2 fold change at minimum 0.07?
Data returned: Not fulfilled

Data request: Reported shrunken log2 fold change at or above 0.07? RRIRERPPRLPRPRPRPNWIPRP
Data returned: Not fulfilled

Data request: Does the sequence RRIRGRPPRLPRPRPRPHVEPRP have recorded shrunken log2 fold change that is 0.07 or more?
Data returned: Fulfilled

Data request: Would you say RRIRCRPPRLPRPRPRPYTYPRP shows shrunken log2 fold change at minimum 0.07?
Data returned: Not fulfilled

Data request: Form field: shrunken log2 fold change at least 0.07? Entry: RRIRPRPPRLPRPRPRPKKTPRP
Data returned: Not fulfilled

Data request: // inclusive: shrunken log2 fold change at least 0.07? input: RRIRLRPPRLPRPRPRPPYQPRP
Data returned: Not fulfilled

Data request: Tell me whether shrunken log2 fold change is at least 0.07 here: RRIRVRPPRLPRPRPRPIEEPRP
Data returned: Not fulfilled

---

test system: Escherichia coli TOP10; assay: shrunken log2 fold change of peptide-encoding DNA abundance (4.5 h post-induction vs induction); higher = less antimicrobial activity (less host growth inhibition); conditions: time post-induction: 4.5 h; library: site-saturation at positions 5, 18, 19, 20
# cutoff -0.03 applies to shrunken log2 fold change; >= gives 1.0, < gives 0.0

Consider the worked cases shown below.
Sequence record: RRIRMRPPRLPRPRPRPFGEPRP
Answer label: 1.0
--
Sequence record: RRIRLRPPRLPRPRPRPKDWPRP
Answer label: 1.0
--
Sequence record: RRIRNRPPRLPRPRPRPFLFPRP
Answer label: 0.0
--
Sequence record: RRIRFRPPRLPRPRPRPWAWPRP
Answer label: 1.0
--
Sequence record: RRIRWRPPRLPRPRPRPSMDPRP
Answer label: 0.0

Data request: Quick check: does RRIRNRPPRLPRPRPRPCGFPRP have shrunken log2 fold change greater than or equal to -0.03?
Data returned: 1.0

Data request: In plain terms: is recorded shrunken log2 fold change at least -0.03 for RRIRRRPPRLPRPRPRPQATPRP ?
Data returned: 1.0

Data request: Kindly determine if shrunken log2 fold change recorded for RRIRGRPPRLPRPRPRPGSWPRP is above or exactly -0.03.
Data returned: 1.0

Data request: Say whether RRIRWRPPRLPRPRPRPELIPRP shows shrunken log2 fold change of -0.03 or more.
Data returned: 1.0

Data request: Textbook exercise: given the entry RRIRFRPPRLPRPRPRPRKWPRP , state whether its shrunken log2 fold change is greater than or equal to -0.03.
Data returned: 1.0

---

system: Escherichia coli TOP10; assay: shrunken log2 fold change of peptide-encoding DNA abundance (4.5 h post-induction vs induction); higher = less antimicrobial activity (less host growth inhibition); settings: time post-induction: 4.5 h; library: site-saturation at positions 5, 18, 19, 20
Kind request: treat -0.001 as inclusive, so shrunken log2 fold change at -0.001 or higher is fulfilled, anything lower is not fulfilled.

Previously resolved entries follow.
Sequence record: RRIRCRPPRLPRPRPRPQWFPRP
Answer label: not fulfilled

Sequence record: RRIRNRPPRLPRPRPRPTDSPRP
Answer label: not fulfilled

Sequence record: RRIRERPPRLPRPRPRPLFHPRP
Answer label: not fulfilled

Sequence record: RRIRLRPPRLPRPRPRPKKDPRP
Answer label: fulfilled

Sequence record: RRIRQRPPRLPRPRPRPCEAPRP
Answer label: fulfilled

Sequence record: RRIRMRPPRLPRPRPRPVNCPRP
Answer label: fulfilled

Data request: Is shrunken log2 fold change for RRIRIRPPRLPRPRPRPSCTPRP at or above -0.001?
Data returned: not fulfilled

Data request: hey, is shrunken log2 fold change for this one >= -0.001? RRIRGRPPRLPRPRPRPNRKPRP
Data returned: fulfilled

---

Parameter: shrunken log2 fold change. Scope: all listed entries.
tested on: Escherichia coli TOP10; assay: shrunken log2 fold change of peptide-encoding DNA abundance (4.5 h post-induction vs induction); higher = less antimicrobial activity (less host growth inhibition); conditions: time post-induction: 4.5 h; library: site-saturation at positions 5, 18, 19, 20;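 note: peptides expressed intracellularly from a pBAD plasmid library in pooled LB shake-flask culture, induced with 0.3% L-arabinose, DNA abundance read by NGS, three biological replicates, DESeq2 with apeglm shrinkage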
When you answer, write just the number.

These solved cases illustrate the format of a correct answer.
Sequence record: RRIRSRPPRLPRPRPRPIGVPRP
Test value: 0.049
//
Sequence record: RRIRMRPPRLPRPRPRPAKPPRP
Test value: 0.453
//
Sequence record: RRIRKRPPRLPRPRPRPMEQPRP
Test value: 0.033
//
Sequence record: RRIRLRPPRLPRPRPRPIVYPRP
Test value: -0.43
//
Sequence record: RRIRFRPPRLPRPRPRPCFLPRP
Test value: -0.623
//
Sequence record: RRIRRRPPRLPRPRPRPLVCPRP
Test value: 0.177

# shrunken log2 fold change (sequence: RRIRCRPPRLPRPRPRPRNCPRP ) is -0.288

get_value(item= RRIRPRPPRLPRPRPRPYSDPRP , readout=shrunken log2 fold change) returns -0.713

Item: RRIRCRPPRLPRPRPRPQTKPRP | shrunken log2 fold change: 0.146
